TGT: Amine oxidase [copper-containing] 3 (Homo sapiens, UniProt Q16853)
Sequence (Q16853 whole entry): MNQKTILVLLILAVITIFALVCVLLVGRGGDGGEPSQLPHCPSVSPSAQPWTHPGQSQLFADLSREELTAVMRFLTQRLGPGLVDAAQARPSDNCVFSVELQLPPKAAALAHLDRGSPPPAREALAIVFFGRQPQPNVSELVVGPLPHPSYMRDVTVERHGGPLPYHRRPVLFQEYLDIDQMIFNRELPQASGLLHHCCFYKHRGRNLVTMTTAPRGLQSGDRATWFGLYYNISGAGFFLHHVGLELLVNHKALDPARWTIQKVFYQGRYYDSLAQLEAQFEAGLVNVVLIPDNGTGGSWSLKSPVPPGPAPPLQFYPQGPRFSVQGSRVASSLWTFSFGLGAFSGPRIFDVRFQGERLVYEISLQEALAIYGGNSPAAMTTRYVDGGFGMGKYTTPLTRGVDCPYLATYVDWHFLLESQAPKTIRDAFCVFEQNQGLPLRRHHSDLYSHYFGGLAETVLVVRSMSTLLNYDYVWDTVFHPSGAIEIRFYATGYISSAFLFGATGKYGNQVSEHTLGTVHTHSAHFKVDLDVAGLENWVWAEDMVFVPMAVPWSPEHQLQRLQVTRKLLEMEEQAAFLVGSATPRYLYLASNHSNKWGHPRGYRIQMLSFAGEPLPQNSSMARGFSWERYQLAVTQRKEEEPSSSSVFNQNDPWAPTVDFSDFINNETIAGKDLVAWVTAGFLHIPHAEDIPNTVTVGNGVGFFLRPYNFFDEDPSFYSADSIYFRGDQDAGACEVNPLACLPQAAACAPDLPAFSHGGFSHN
ASSAY_DETAILS: Inhibition of human VAP1 expressed in CHO cells using [14C]-benzylamine as substrate incubated for 30 mins prior to substrate addition measured after 1 hr by scintillation spectrophotometric analysis
pIC50: −log10 of the molar value.
Returns TRUE if the recorded pIC50 is greater than or equal to 6, and FALSE otherwise.

- MOLECULAR_STRING: "CC(=O)Nc1nc(-c2ccc(CCNC(=N)N)cc2)cs1"
  CLASS: "TRUE"
- MOLECULAR_STRING: "CC(=O)Nc1nc(CCc2ccc(NC3=NCCS3)cc2)cs1"
  CLASS: "FALSE"
- MOLECULAR_STRING: "CC(C)C(=O)Nc1nc(CCc2ccc(NC(=N)N)cc2)cs1"
  CLASS: "TRUE"
- MOLECULAR_STRING: "N=C(N)Nc1ccc(CCc2csc(NC(=O)c3ccccc3)n2)cc1"
  CLASS: "FALSE"
- MOLECULAR_STRING: "CC(=O)Nc1nc(CCc2ccc(NC(=N)N(C)C)cc2)cs1"
  CLASS: "FALSE"

Next, consider the following compound.
(Q) Decide: is the reported value of pIC50 for CC(=O)Nc1nc(CCc2ccc(NC(N)=S)cc2)cs1 equal to or greater than 6?
(A) FALSE
